assay: NFAT Signaling Pathway (AID 444); settings: Jurkat NFAT-bla M1, carbachol, beta-lactamase ratio, 5 h; at 7.69 µM (top of the series) unless noted;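 further: carbachol stimulus at about its EC50 of 1 µM final; on the % scale 0 is the no-effect control and ±100 the full control effect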
Records with an inconclusive call do not appear. Activity calls are given as the source filed them. The call rests on the fitted dose curve; in most records, active means well fitted curve in either direction with a large enough effect (not every such curve was filed as active); inconclusive means small, poorly fitted or top-dose-only effect, or another doubt; inactive means flat fitted curve, though single readings scatter.
EXPERIMENTAL_ENDPOINT: activity change, negative = inhibition

>>> endpoint_result("C[C@@H]1NCC[C@H](CC(=O)O)[C@H]1CC(=O)O")
"-12% (inactive)"
>>> endpoint_result("CC(C)(CN)SCc1ccccc1")
"-0.0753% (inactive)"
>>> endpoint_result("CN(Cc1cc(Cl)cc(Cl)c1O)Cc1c(O)ccc2ccccc12")
"-4.41% (inactive)"
>>> endpoint_result("O=C(O)CCC(=O)c1ccc2sc3ccccc3c2c1")
"7.45% (inactive)"
>>> endpoint_result("COc1cc2c(cc1OC)[C@H](c1ccccc1)CN(C)CC2")
"-8.45% [at 38 µM] (inactive)"
>>> endpoint_result("NC1=C(O)C(=O)[C@H](c2c[nH]c3ccc(OCc4ccccc4)cc23)O1")
"7.15% (inactive)"
>>> endpoint_result("O=C1c2cc([N+](=O)[O-])ccc2-c2ccc3c4ccc5c6c(ccc(c7ccc1c2c73)c64)C(=O)c1cc([N+](=O)[O-])ccc1-5")
"21.7% (inactive)"
>>> endpoint_result("CN(C)CCCn1c2ccccc2c2cnccc21")
"2.32% (inactive)"
>>> endpoint_result("Oc1ccc(CNCc2ccccc2)c2cccnc12")
"-26.9% (inactive)"
>>> endpoint_result("NC(=O)Nc1n[nH]c(-c2ccccc2)n1")
"-3.57% (inactive)"
>>> endpoint_result("Cc1cccc(Cl)c1NC[C@H](O)CN1CCN(C)CC1")
"-10.1% (inactive)"
>>> endpoint_result("Cc1cc2c(=O)[nH]c(N)nc2nc1C")
"7.25% (inactive)"
>>> endpoint_result("Nc1nc(N)nc(CC(=O)O)n1")
"15.8% (inactive)"
>>> endpoint_result("O=C(O)c1cc(C(=O)O)nc(C(=O)O)c1")
"0.674% (inactive)"
>>> endpoint_result("O=C1C(=O)c2ccccc2C(O)=C1C(CCc1ccccc1)C1=C(O)c2ccccc2C(=O)C1=O")
"6.66% (inactive)"
>>> endpoint_result("O=P(O)(O)O[C@@H]1O[C@H](CO)[C@@H](O)[C@H](O)[C@@H]1O")
"2.61% (inactive)"
>>> endpoint_result("C[C@@]12CC[C@@H]3[C@H](CCC4=CC(=O)CC[C@]43C)[C@@H]1CC[C@@H]2C(=O)COS(=O)(=O)c1ccc(Br)cc1")
"19% (inactive)"
>>> endpoint_result("NCc1nnn(Cc2ccccc2)c1N")
"19.4% (inactive)"
>>> endpoint_result("CNc1ncnc2c1ncn2[C@@H]1O[C@@H](CO)[C@H](O)[C@@H]1O")
"0.83% [at 38 µM] (inactive)"
>>> endpoint_result("N=C(N)SCc1cc(Cl)cc(Cl)c1O")
"5.42% (inactive)"
>>> endpoint_result("O=C(O)c1ccc(C(=O)O)c2c(C(=O)O)ccc(C(=O)O)c12")
"5.59% (inactive)"
>>> endpoint_result("CC1(C)[C@@H]2CC[C@]1(C)[C@@H](OC(=O)CSC#N)C2")
"18.3% (inactive)"
>>> endpoint_result("CN(C)Cc1ccc(C(C)(C)C)cc1-c1cc(C(C)(C)C)ccc1CN(C)C")
"6.36% (inactive)"
>>> endpoint_result("CC(C)c1ccccc1S(=O)c1ccccc1C(C)(C)O (centres undefined)")
"20.3% (inactive)"

Data origin, for the record: PubChem BioAssay (NCATS)
